Source: paper PMC10786891

assayed system: T1, EsCas13d, nuclease-dead (Eubacterium siraeum, UniProt B0MS50, R295A;H300A;R849A;H854A)
T1 sequence: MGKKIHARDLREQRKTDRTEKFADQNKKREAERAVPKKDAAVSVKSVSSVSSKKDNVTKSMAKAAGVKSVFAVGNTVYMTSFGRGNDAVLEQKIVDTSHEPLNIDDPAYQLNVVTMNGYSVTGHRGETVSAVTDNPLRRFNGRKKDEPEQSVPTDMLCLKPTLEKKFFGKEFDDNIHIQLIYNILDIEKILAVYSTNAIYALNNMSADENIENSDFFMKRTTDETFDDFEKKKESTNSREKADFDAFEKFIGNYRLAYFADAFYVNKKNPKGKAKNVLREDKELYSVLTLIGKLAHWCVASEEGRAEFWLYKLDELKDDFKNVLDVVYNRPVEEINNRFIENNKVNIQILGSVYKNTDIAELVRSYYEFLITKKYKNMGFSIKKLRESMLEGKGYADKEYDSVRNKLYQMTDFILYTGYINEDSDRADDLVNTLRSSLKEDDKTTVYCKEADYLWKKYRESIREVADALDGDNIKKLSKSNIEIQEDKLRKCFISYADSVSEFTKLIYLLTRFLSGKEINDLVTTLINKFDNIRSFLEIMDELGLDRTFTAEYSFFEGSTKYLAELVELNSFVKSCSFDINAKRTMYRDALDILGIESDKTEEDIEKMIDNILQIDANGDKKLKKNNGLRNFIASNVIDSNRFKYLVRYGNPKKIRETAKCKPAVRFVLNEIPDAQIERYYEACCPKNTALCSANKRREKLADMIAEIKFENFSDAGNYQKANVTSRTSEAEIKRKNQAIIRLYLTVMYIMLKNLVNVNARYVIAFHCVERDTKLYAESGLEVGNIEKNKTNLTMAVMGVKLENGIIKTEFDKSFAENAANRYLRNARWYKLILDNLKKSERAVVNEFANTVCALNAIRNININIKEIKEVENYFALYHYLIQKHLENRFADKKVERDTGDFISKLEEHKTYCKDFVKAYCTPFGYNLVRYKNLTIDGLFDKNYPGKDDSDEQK
assay comment: crRNA (strand 1, pre-loaded); Mg2+; 40 mM Tris-HCl pH 7.5, 150 mM NaCl, 6 mM MgCl2, 1 mM DTT, 0.1% Tween-20, 0.2 mg/ml BSA; 25 C; 10 min per concentration, then washed
condition label: tags: His6-TwinStrep-SUMO cleaved; N-terminal SNAP kept (SNAP-Surface 488); label: 3' end held by stalled T7 RNA polymerase
readout label: pKd
Remember, pKd is on a log scale: it is -log10 of the molar concentration.

INPUT: Item target 1 insC 3' of 18,insG 3' of 7 (mixed) RNA 1: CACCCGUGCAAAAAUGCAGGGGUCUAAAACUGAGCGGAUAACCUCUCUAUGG RNA 2: GGGAAUGGAUCCACAUCUACGAAUUCGUACCAUACGAGAGGUUAUCGCGCUCACCGAGAUCGGAAGAGCACACGU has what recorded pKd?
OUTPUT: 7.43

INPUT: For the binder target 1 MT 5'PFS GAC 3'PFS AGU (mixed) RNA 1: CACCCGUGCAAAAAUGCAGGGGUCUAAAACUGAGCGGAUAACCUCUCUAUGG RNA 2: GGGAAUGGAUCCACAUCUACGAAUUCGACCCAUAGAGAGGUUAUCCGCUCAAGUAGAUCGGAAGAGCACACGU , what pKd is on record?
OUTPUT: 7.45
